tested on: HS 578T breast; experiment: NCI tumour cell line growth inhibition, 48 h
EXPERIMENTAL ENDPOINT: TGI (µM)
All answers are understood in µM, so give the number only.

Record CC(C)C(=O)Nc1ccc(-c2nc(-c3cccc(OCCN4CCOCC4)c3)c(-c3ccnc(Br)c3)[nH]2)cc1 has HS 578T breast TGI equal to 3.69

Record COc1ccc(C2=NN(C=O)C(c3ccc(OS(=O)(=O)c4ccc(C)cc4)c(OC)c3)C2)cc1 (stereo not given) has HS 578T breast TGI equal to 88.3

Record Cc1cc2c(C(=O)NCC#N)cccc2n1-c1nc2c(c(NCc3ccccc3)n1)CCCC2 has HS 578T breast TGI equal to 47.5

----------
tested on: EKVX NSCLC; assay: NCI tumour cell line growth inhibition, 48 h; in the data active = GI50 below about 0.43 µM; inactive = the rest
API: response.call in true (1) = active, false (0) = inactive

Prompt line: Look up the recorded call for O=C(/C=C/c1ccco1)Nc1ncc(Cc2cccc(C(F)(F)F)c2)s1 in this test.
Response line: true (1)

Prompt line: Look up the recorded call for CN1C(=O)/C(=C2\S/C(=N\c3nnc(-c4ccccc4)o3)NC2=O)c2ccccc21 in this test.
Response line: false (0)

Prompt line: Look up the recorded call for CCC[CH2][Sn]1([CH2]CCC)[O]C(=O)CN=C(C)c2ccccc2[O]1 in this test.
Response line: false (0)

Prompt line: Look up the recorded call for CC(C)C(=O)Nc1ccc(-c2nc(-c3cccc(OCCN4CCOCC4)c3)c(-c3ccnc(Br)c3)[nH]2)cc1 in this test.
Response line: false (0)

Prompt line: Look up the recorded call for COc1cc(N2CCN(C(C)C)CC2)ccc1Nc1nc(Nc2ccc(F)cc2C(=O)NCC(O)CO)c2cc[nH]c2n1 (centres undefined) in this test.
Response line: false (0)

Prompt line: Look up the recorded call for CCC(CC)c1cc(N[C@H]2CC[C@H](N)C2)n2nccc2n1 in this test.
Response line: false (0)

Prompt line: Look up the recorded call for Cc1cc2c(C(=O)NCC#N)cccc2n1-c1nc2c(c(NCc3ccccc3)n1)CCCC2 in this test.
Response line: true (1)

Prompt line: Look up the recorded call for O=C(COc1cccc(/C=C2\COc3ccccc3C2=O)c1)c1ccccc1 in this test.
Response line: false (0)

Prompt line: Look up the recorded call for CC(=O)OC1CC2C(C)(C)CCC[C@]2(C)C2=C1C(O)=C(C(C)C)C(=O)C2=O (some centres undefined) in this test.
Response line: true (1)

----------
tested on: HOP-92 NSCLC; assay: NCI tumour cell line growth inhibition, 48 h; in the data active = GI50 below about 0.43 µM; inactive = the rest
API: response.call in Yes (active), No (inactive)

Prompt line: Look up the recorded call for Clc1ccc(C2CC(c3cccc(Nc4ccncc4)c3)=NN2c2ccccc2)cc1 (stereo not given) in this test.
Response line: No

Prompt line: Look up the recorded call for C=C1C[C@@H](O)[C@@H](Br)C(C)(C)[C@]12CCC(C)(Br)C(Cl)C2 (stereo not given in full) in this test.
Response line: No

Prompt line: Look up the recorded call for Cc1ccc(S(=O)(=O)OCC(=O)Nc2ccc(C(=O)O)c(O)c2)cc1 in this test.
Response line: No

Prompt line: Look up the recorded call for Clc1ccc(-c2nc3c(-c4ccccc4)nc(-c4ccccc4)cn3c2-c2ccc(Cl)cc2)cc1 in this test.
Response line: No

Prompt line: Look up the recorded call for NC(=O)c1cc(I)ccc1NC(=O)/C=C/c1ccccc1Cl in this test.
Response line: No

Prompt line: Look up the recorded call for Fc1ccc(Nc2ncc(-c3cc(F)c(Cl)cc3Cl)s2)cc1Cl in this test.
Response line: No

Prompt line: Look up the recorded call for COc1cc(-c2cc(-c3cccs3)c(C#N)c(N3CCOCC3)n2)cc(OC)c1OC in this test.
Response line: No

Prompt line: Look up the recorded call for CCCCOC(=O)/C=C\C(=O)NC(N)=O in this test.
Response line: No

Prompt line: Look up the recorded call for CC(C)C(=O)Nc1ccc(-c2nc(-c3cccc(OCCN4CCOCC4)c3)c(-c3ccnc(Br)c3)[nH]2)cc1 in this test.
Response line: No

Prompt line: Look up the recorded call for COC1=CC(c2ccc[nH]2)=N/C1=C\c1[nH]c(C)c(C(=O)Oc2ccccc2)c1C in this test.
Response line: Yes

Taken from PubChem BioAssay (NCI).
